- ASSAY EXPLANATION: physchem
MEASURE: solubility

-- ask Output measured solubility for this item: Cc1ccc(-c2nc(CN3CCN(C(c4ccccc4)c4ccccc4)CC3)c(C)[nH]2)cc1.O=C(O)C(O)C(O)C(=O)O [tartrate salt]
-- reply > 4000 µg/mL

FYI, the data here is from patent US4973591A.
